# System under test: A1 AR (Homo sapiens, UniProt P30542)
# Sequence (P30542 1-326): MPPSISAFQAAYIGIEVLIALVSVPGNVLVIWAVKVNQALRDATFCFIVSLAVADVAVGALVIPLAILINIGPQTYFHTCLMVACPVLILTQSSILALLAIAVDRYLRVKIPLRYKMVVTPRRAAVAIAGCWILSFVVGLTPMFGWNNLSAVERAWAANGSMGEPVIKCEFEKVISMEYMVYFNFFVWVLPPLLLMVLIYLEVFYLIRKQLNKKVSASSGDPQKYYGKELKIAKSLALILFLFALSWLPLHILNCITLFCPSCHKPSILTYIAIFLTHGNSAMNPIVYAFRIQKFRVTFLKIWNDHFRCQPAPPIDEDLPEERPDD
# Assay details: cAMP assay (inhibition of forskolin-stimulated adenylyl cyclase) in CHO cells expressing A1 AR
# Format: cell-based
# Experimental parameters: cAMP inhibition; mean ± SEM, n = 3
Reported endpoint: pEC50
Just so you know, pEC50 here is -log10 of the concentration in molar units; reply with that number alone.

Consider the following illustrative entries.
{"columns": ["Compound", "System under test", "Numeric result"],
 "data": [
  ["NCCNCCNC(=O)Cc1ccc(NC(=O)Cc2ccc(Nc3ncnc4c3ncn4[C@@H]3O[C@H](CO)[C@@H](O)[C@H]3O)cc2)cc1 [Compound 7]", "A1 AR (Homo sapiens, UniProt P30542)", 7.05],
  ["O=C(O)CCc1ccc(NC(=S)NCCNC(=O)Cc2ccc(NC(=O)Cc3ccc(Nc4ncnc5c4ncn5[C@@H]4O[C@H](CO)[C@@H](O)[C@H]4O)cc3)cc2)cc1 [Compound 4]", "A1 AR (Homo sapiens, UniProt P30542)", 6.46]
]}

Now examine the next entry.
Sample NCCNC(=O)Cc1ccc(NC(=O)Cc2ccc(Nc3ncnc4c3ncn4[C@@H]3O[C@H](CO)[C@@H](O)[C@H]3O)cc2)cc1 [Compound 1, reference compound] , system: A1 AR (Homo sapiens, UniProt P30542). Its pEC50 is 6.40

###

Readings of Ki for the listed molecules
# System under test: A3 AR (Homo sapiens, UniProt P0DMS8)
# Sequence (P0DMS8 whole entry): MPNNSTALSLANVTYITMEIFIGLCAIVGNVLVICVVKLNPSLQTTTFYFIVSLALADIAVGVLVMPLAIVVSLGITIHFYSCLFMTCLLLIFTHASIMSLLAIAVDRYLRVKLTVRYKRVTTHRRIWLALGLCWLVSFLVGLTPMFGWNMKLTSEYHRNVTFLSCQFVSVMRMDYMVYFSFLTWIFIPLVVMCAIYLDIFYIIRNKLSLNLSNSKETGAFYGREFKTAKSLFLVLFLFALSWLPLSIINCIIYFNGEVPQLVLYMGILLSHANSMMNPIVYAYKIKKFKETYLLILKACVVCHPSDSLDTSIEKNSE
Give the value in nM but do not write nM after it.

Consider the following illustrative entries.
{"columns": ["Molecule", "Ki (nM)"],
 "data": [
  ["O=C(O)CCc1ccc(NC(=S)NCCNC(=O)Cc2ccc(NC(=O)Cc3ccc(Nc4ncnc5c4ncn5[C@@H]4O[C@H](CO)[C@@H](O)[C@H]4O)cc3)cc2)cc1", 74],
  ["NCCNC(=O)Cc1ccc(NC(=O)Cc2ccc(Nc3ncnc4c3ncn4[C@@H]3O[C@H](CO)[C@@H](O)[C@H]3O)cc2)cc1 [Compound 1, reference compound]", 12.2]
]}

Sample NCCNCCNC(=O)Cc1ccc(NC(=O)Cc2ccc(Nc3ncnc4c3ncn4[C@@H]3O[C@H](CO)[C@@H](O)[C@H]3O)cc2)cc1 , system: A3 AR (Homo sapiens, UniProt P0DMS8). Its Ki is 9.5
